Data origin, for the record: patent US20250042994A1

Target: T1, Human CD19-his protein (human, UniProt P15391 20-291)
T1 construct: bought protein; also called human CD19 protein; recombinant human CD19-His; not shown: His tag
T1 sequence (looked up): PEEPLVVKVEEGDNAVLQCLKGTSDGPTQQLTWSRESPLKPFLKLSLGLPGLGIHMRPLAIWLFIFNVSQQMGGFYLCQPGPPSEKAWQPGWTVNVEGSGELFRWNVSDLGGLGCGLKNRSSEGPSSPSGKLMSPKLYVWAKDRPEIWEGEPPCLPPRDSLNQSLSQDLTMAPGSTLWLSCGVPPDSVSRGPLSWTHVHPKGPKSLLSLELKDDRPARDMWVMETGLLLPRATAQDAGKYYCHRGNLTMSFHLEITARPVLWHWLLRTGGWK
Test: ELISA, antibody at 0.001 nM
# OD450 per entry
Enter the number alone.

Worked cases, answers included:
F4.272.13 (antibody, human IgG1, V domains shown, human-murine chimeric antibody, human IgG1) VH: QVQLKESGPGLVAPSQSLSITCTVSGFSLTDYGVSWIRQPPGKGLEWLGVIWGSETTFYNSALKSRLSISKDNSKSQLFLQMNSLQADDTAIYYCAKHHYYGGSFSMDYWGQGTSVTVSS VL: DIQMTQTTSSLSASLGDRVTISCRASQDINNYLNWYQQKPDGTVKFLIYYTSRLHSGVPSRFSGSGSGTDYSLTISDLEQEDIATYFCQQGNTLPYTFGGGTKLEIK :: 0.09
F6.2.9 (antibody, human IgG1, V domains shown, human-murine chimeric antibody, human IgG1) VH: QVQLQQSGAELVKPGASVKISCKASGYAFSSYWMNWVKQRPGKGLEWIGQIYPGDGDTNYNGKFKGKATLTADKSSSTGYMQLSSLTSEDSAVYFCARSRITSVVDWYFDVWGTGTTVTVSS VL: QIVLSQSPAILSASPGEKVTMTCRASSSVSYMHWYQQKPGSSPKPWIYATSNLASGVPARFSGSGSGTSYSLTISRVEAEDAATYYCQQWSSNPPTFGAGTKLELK :: 0.06

Consider the record given below.
[in] Give the measured OD450 of F3.114.12 (antibody, human IgG1, V domains shown, human-murine chimeric antibody, human IgG1) VH: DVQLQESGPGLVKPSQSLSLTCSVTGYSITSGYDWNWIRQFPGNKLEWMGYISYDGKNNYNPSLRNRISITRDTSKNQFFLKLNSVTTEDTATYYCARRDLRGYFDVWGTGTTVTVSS VL: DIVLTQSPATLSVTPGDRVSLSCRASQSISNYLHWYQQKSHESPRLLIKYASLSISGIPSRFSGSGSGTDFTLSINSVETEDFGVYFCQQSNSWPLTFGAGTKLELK .
[out] 0.05
